System: Danio rerio Tg(wt1b:EGFP) embryo, pronephros
Test: glomerular separation, fold change vs DMSO control; higher = glomeruli further apart (abnormal)
Settings: 25 µM; exposure: 24-48 hpf
Assay metric: glomerular separation

Example entries begin here.
>  <Compound>
C[C@]12Cc3c[nH]nc3C[C@@H]1CC[C@@H]1[C@@H]2CC[C@@]2(C)[C@H]1CC[C@]2(C)O

>  <Assay system>
Danio rerio Tg(wt1b:EGFP) embryo, pronephros

>  <glomerular separation>
1.31

$$$$
>  <Compound>
CN1C[C@H](CNC(=O)OCc2ccccc2)C[C@@H]2c3cccc4c3c(cn4C)C[C@H]21

>  <Assay system>
Danio rerio Tg(wt1b:EGFP) embryo, pronephros

>  <glomerular separation>
0.977

$$$$
>  <Compound>
CC(=O)O[C@H]1C[C@H](O[C@H]2[C@@H](O)C[C@H](O[C@H]3[C@@H](O)C[C@H](O[C@H]4CC[C@@]5(C)[C@H](CC[C@@H]6[C@@H]5C[C@@H](O)[C@]5(C)[C@@H](C7=CC(=O)OC7)CC[C@]65O)C4)O[C@@H]3C)O[C@@H]2C)O[C@H](C)[C@H]1O[C@@H]1O[C@H](CO)[C@@H](O)[C@H](O)[C@H]1O [Lanatoside C]

>  <Assay system>
Danio rerio Tg(wt1b:EGFP) embryo, pronephros

>  <glomerular separation>
1.4

$$$$

Q: GET /values?readout=glomerular separation&item= C[C@]12CC[C@@H](O)C[C@H]1CC[C@@H]1[C@@H]2CC[C@]2(C)C(=O)CC[C@@H]12 [3-alpha-Hydroxy-5-beta-androstan-17-one]
Result: 1.13

Q: GET /values?readout=glomerular separation&item= CNC(C)(C)Cc1ccccc1 [Mephentermine hemisulfate]
Result: 0.946

Q: GET /values?readout=glomerular separation&item= CC(Cc1ccccc1)NCCC(c1ccccc1)c1ccccc1 (stereo unspecified) [Prenylamine lactate]
Result: 1.05

----------
Test system: Danio rerio Tg(wt1b:EGFP) embryo, pronephros
Assay: glomerular separation, fold change vs DMSO control; higher = glomeruli further apart (abnormal)
Conditions: 25 µM; exposure: 24-48 hpf
Where a name gives a salt, the structure may show the parent alone.
Assign class by glomerular separation: not lower than 1 means Yes; lower than 1 means No.

>  <Compound>
CC(C)C[C@H](CN)CC(=O)O

>  <Assigned class>
Yes

$$$$
>  <Compound>
CCC1(C)CC(=O)NC(=O)C1 [Bemegride]

>  <Assigned class>
No

$$$$
>  <Compound>
NCCc1c[nH]c2ccc(O)cc12 [Serotonin hydrochloride]

>  <Assigned class>
Yes

$$$$
>  <Compound>
C[N+](C)(C)CCCCCCCCCC[N+](C)(C)C [Decamethonium bromide]

>  <Assigned class>
Yes

$$$$
>  <Compound>
COc1ccc(OC)c(C(O)C(C)N)c1 (stereo not given) [Methoxamine hydrochloride]

>  <Assigned class>
No

$$$$

Q: Kindly determine if glomerular separation recorded for `C#C[C@]1(O)CC[C@H]2[C@@H]3CCC4=CC(=O)CC[C@]4(C)[C@H]3CC[C@@]21C` is above or exactly 1.
Result: No

Q: Kindly determine if glomerular separation recorded for `CC[C@@H](C(N)=O)N1CCCC1=O` is above or exactly 1.
Result: No

----------
Test system: Danio rerio Tg(wt1b:EGFP) embryo, pronephros
Test: glomerular width (mean of left and right), fold change vs DMSO control; higher = wider glomerulus
Settings: 25 µM; exposure: 24-48 hpf
Where a name gives a salt, the structure may show the parent alone.
Assay metric: glomerular width
Please give only the number in your answer, with no unit.

Example entries begin here.
>  <Compound>
O=C(NCNC(=O)NC1C(=O)NC(=O)N1CO)NC1C(=O)NC(=O)N1CO (stereo unspecified)

>  <glomerular width>
1.01

$$$$
>  <Compound>
CC(=O)OCC1=C(C(=O)O)N2C(=O)[C@@H](N)[C@H]2SC1

>  <glomerular width>
1.14

$$$$
>  <Compound>
CC(=O)NC1CCSC1=O (racemic)

>  <glomerular width>
1.07

$$$$
>  <Compound>
COc1cc2c(c(OC)c1OC)-c1ccc(OC)c(=O)cc1[C@@H](NC(C)=O)CC2

>  <glomerular width>
0.827

$$$$
>  <Compound>
C=C(C)[C@@H]1[C@H]2OC(=O)[C@@H]1[C@]1(O)C[C@H]3O[C@]34C(=O)O[C@H]2[C@]14C

>  <glomerular width>
0.973

$$$$
>  <Compound>
NC(=O)C[S+]([O-])C(c1ccccc1)c1ccccc1 (stereo unspecified)

>  <glomerular width>
1.09

$$$$
>  <Compound>
COc1ccc(OC)c(C(O)C(C)N)c1 (stereo unspecified) [Methoxamine hydrochloride]

>  <glomerular width>
0.972

$$$$
>  <Compound>
C=C1CC[C@@]2(O)[C@H]3Cc4ccc(O)c5c4[C@@]2(CCN3CC2CC2)[C@H]1O5 [Nalmefene hydrochloride]

>  <glomerular width>
1.02

$$$$
>  <Compound>
CC(CCc1ccccc1)NC(C)C(O)c1ccc(O)cc1 (stereo unspecified)

>  <glomerular width>
1.02

$$$$
>  <Compound>
C[N+]1(C)[C@@H]2CC[C@H]1C[C@@H](OC(=O)C(CO)c1ccccc1)C2 (stereo partly specified) [Methylatropine nitrate]

>  <glomerular width>
0.936

$$$$

Q: GET /values?readout=glomerular width&item= NCC(CC(=O)O)c1ccc(Cl)cc1 (racemic) [Baclofen (R,S)]
Result: 0.933

Q: GET /values?readout=glomerular width&item= `C[C@]12CCC(=O)C=C1CC[C@@H]1[C@@H]2C(=O)C[C@]2(C)C(=O)CC[C@@H]12`
Result: 1.01

Q: GET /values?readout=glomerular width&item= CC(C)N(CCC(C(N)=O)(c1ccccc1)c1ccccn1)C(C)C (stereo unspecified) [Disopyramide]
Result: 1.09

Q: GET /values?readout=glomerular width&item= C[C@@]12N[C@@H](Cc3ccccc31)c1ccccc12 [(-)-MK 801 hydrogen maleate]
Result: 1.03

Q: GET /values?readout=glomerular width&item= `O=c1[nH]c2ccccc2n1CCCN1CCC(n2c(=O)[nH]c3cc(Cl)ccc32)CC1`
Result: 1.03

Q: GET /values?readout=glomerular width&item= `CCN(C(C)=O)c1cccc(-c2ccnc3c(C#N)cnn23)c1`
Result: 0.943

Q: GET /values?readout=glomerular width&item= `CC(C)C[C@H](CN)CC(=O)O`
Result: 0.952

Q: GET /values?readout=glomerular width&item= C[C@]12CCC(=O)C=C1C=C[C@@H]1[C@@H]2CC[C@@]2(C)[C@H]1CC[C@@]2(O)CCC(=O)O [Canrenoic acid potassium salt]
Result: 1.03

----------
System: Danio rerio Tg(wt1b:EGFP) embryo, pronephros
Assay: glomerular width (mean of left and right), fold change vs DMSO control; higher = wider glomerulus
Settings: 25 µM; exposure: 24-48 hpf
Structures can show the parent of a compound that is named as a salt.
Assign class by glomerular width: not lower than 1 means condition met; lower than 1 means condition not met.

Past entries and their recorded results:
>  <Molecule>
COc1ccc(CCN2CCC(Nc3nc4ccccc4n3Cc3ccc(F)cc3)CC2)cc1

>  <Assay system>
Danio rerio Tg(wt1b:EGFP) embryo, pronephros

>  <Assigned class>
condition not met

$$$$
>  <Molecule>
C[N+]1([O-])[C@@H]2C[C@@H](OC(=O)[C@H](CO)c3ccccc3)C[C@H]1[C@@H]1O[C@@H]12 (stereo partly drawn) [Scopolamin-N-oxide hydrobromide]

>  <Assay system>
Danio rerio Tg(wt1b:EGFP) embryo, pronephros

>  <Assigned class>
condition met

$$$$

Q: Kindly determine if glomerular width recorded for CCOC(=O)c1cncn1[C@H](C)c1ccccc1 [Etomidate] is above or exactly 1.
Result: condition not met

Q: Kindly determine if glomerular width recorded for `C=CCC1(CC(C)C)C(=O)NC(=O)NC1=O` is above or exactly 1.
Result: condition met

Q: Kindly determine if glomerular width recorded for C[C@]12N[C@H](Cc3ccccc31)c1ccccc12 [Dizocilpine maleate] is above or exactly 1.
Result: condition met

Q: Kindly determine if glomerular width recorded for C[C@@H]1C[C@@H]([C@H](O)CC2CC(=O)NC(=O)C2)C(=O)[C@@H](C)C1 [Cycloheximide] is above or exactly 1.
Result: condition not met

----------
Tested on: Danio rerio Tg(wt1b:EGFP) embryo, pronephros
Assay: glomerular separation, fold change vs DMSO control; higher = glomeruli further apart (abnormal)
Details: 25 µM; exposure: 24-48 hpf
Counter-ions that a name gives are not always drawn.
Assay metric: glomerular separation
Please give only the number in your answer, with no unit.

>  <Molecule>
C[C@@H]1C[C@@H]([C@H](O)CC2CC(=O)NC(=O)C2)C(=O)[C@@H](C)C1 [Cycloheximide]

>  <glomerular separation>
0.972

$$$$
>  <Molecule>
CCC1=C[C@H]2CN3CCc4c([nH]c5ccccc45)[C@](C(=O)OC)(C2)[C@H]13 [Catharanthine]

>  <glomerular separation>
0.982

$$$$
>  <Molecule>
C=CC[C@]1(O)CC[C@H]2[C@@H]3CCC4=CC(=O)CCC4=C3C=C[C@@]21C [Altrenogest]

>  <glomerular separation>
1.44

$$$$
>  <Molecule>
CC(C)C[C@H]1C(=O)N2CCC[C@H]2[C@]2(O)O[C@](NC(=O)[C@@H]3C=C4c5cccc6[nH]c(Br)c(c56)C[C@H]4N(C)C3)(C(C)C)C(=O)N12 [Bromocryptine mesylate]

>  <glomerular separation>
1.01

$$$$
>  <Molecule>
CC(NC(C)(C)C)C(=O)c1cccc(Cl)c1 (configuration not stated) [Bupropion hydrochloride]

>  <glomerular separation>
0.797

$$$$

Q: GET /values?readout=glomerular separation&item= C=CCN1CC[C@]23c4c5ccc(O)c4O[C@H]2C(=O)CC[C@@]3(O)[C@H]1C5 [Naloxone hydrochloride]
Result: 0.981

Q: GET /values?readout=glomerular separation&item= C[N+]1(C)CCOC(O)(c2ccc(-c3ccc(C4(O)C[N+](C)(C)CCO4)cc3)cc2)C1 (configuration not stated) [Hemicholinium bromide]
Result: 0.878

Source: the supplement of paper PMC7366291
